Values were extracted from the RNAGym collection of RNA variant scans (doi:10.1126/science.aae0568).

Task for the reader: assign each of the following variants its reported yeast fitness.
B1: tRNA (parent)
chain: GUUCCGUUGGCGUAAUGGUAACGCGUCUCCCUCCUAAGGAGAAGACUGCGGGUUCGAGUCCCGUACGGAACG

# Variants of: B1
# method-summary: yeast fitness relative to wild type (ratio to wild type); higher = fitter; tRNA-Arg(CCU), competitive growth, 37 C, YPD
Fewer inactive variants are shown than the library holds.
Answer with a bare number; do not write a unit.

What the record says about U8G G67U : yeast fitness is 0.583

What the record says about C46A A70U : yeast fitness is 1.04

What the record says about U2G G25U C49U A65G : yeast fitness is 0.64

What the record says about C5U A43G A69C : yeast fitness is 0.72

What the record says about G9A C11A A20U C61U : yeast fitness is 0.559

What the record says about U2C A42U C62U : yeast fitness is 0.571

What the record says about A15G C30A C62G : yeast fitness is 0.634

What the record says about U3C A21C : yeast fitness is 0.831

What the record says about U3C U8A : yeast fitness is 0.639

What the record says about U13C A57G : yeast fitness is 0.919

What the record says about C24U C27A : yeast fitness is 0.882

What the record says about A14G A43G : yeast fitness is 0.932

What the record says about G23U G63C : yeast fitness is 0.623

What the record says about A21G G67U A70U : yeast fitness is 0.607

What the record says about G25A C66G : yeast fitness is 0.962

What the record says about G25A A40G : yeast fitness is 0.972

What the record says about U26G G50C A57G : yeast fitness is 0.529
